Data provenance: PubChem BioAssay (NCI)

- Test system: NCI-H522 lung
- experimental_details: NCI tumour cell line growth inhibition, 48 h
# TGI listing for each entry below
property_label: TGI (µM)

molecule="CN(C)c1ccc(C2CC(C)(O)Oc3cc4c(cc32)OCO4)cc1 (centres undefined)" limit_sign=> meas_value=100
molecule="CCCCCCCCCCCCCCCC(=O)OCC1OC(n2cc(F)c(=O)[nH]c2=O)C(NC(=O)N(CCCl)N=O)C(O)C1O (centres undefined)" limit_sign== meas_value=10
molecule=Cc1cc(=O)n2nc(CSc3nnc(Sc4cc(O)ccc4O)s3)sc2n1 limit_sign== meas_value=46.2
molecule="NNC(=O)N/N=C1\\CN(c2ccc(Cl)cc2Cl)C(=O)C(=O)C1c1nc2ccccc2o1 (centres undefined)" limit_sign=> meas_value=100
molecule=COc1ccc(/C=C/C(C)=N/OCC(=O)Nc2ccc(Cl)cc2)cc1 limit_sign== meas_value=8.01
molecule=O=C1CNN=C(Cn2nc(-c3ccccc3)c3ccccc3c2=O)N1 limit_sign=> meas_value=100
molecule="CCCCCCCCCCCCC1N=C(N)NC2(CCCO2)C1C(=O)OC (centres undefined)" limit_sign== meas_value=9.7
molecule="COC(=O)C(NC(=O)c1ccccc1)C(c1c(O)cc(O)cc1O)P(=O)(OC)OC (centres undefined)" limit_sign=> meas_value=100
molecule="O=C(c1ccccc1)C(Br)C(Br)c1ccccc1 (centres undefined)" limit_sign== meas_value=2.62
molecule=C[C@]12CCC3=NCCN3C1=CC[C@@H]1[C@@H]2CC[C@@]2(C)[C@H]1CC[C@]2(C)O limit_sign=> meas_value=100
molecule=Nc1nc(=S)[nH]c(C(=O)Nc2nccs2)c1-c1ccccc1 limit_sign=> meas_value=100
molecule=CCCCCCCc1ccc(-c2nnc(N=Nc3ccc(OCCCCC)cc3)s2)s1 limit_sign=> meas_value=100
molecule=O=C(Oc1ccc2c(c1)CN(Cc1ccccc1)CO2)c1ccccc1 limit_sign== meas_value=22.3
molecule=O=c1nc2[nH]c3c(-c4n[nH]c(=O)[nH]c4=O)cccc3c2n[nH]1 limit_sign=> meas_value=100
